Recorded values, source ChEMBL document CHEMBL1134845.

- Test system: A549
- Test protocol: Inhibitory activity against A549 human adenocarcinoma
- Type: functional, cell-based
Endpoint: pIC50
Would you please state pIC50, meaning minus log10 of the concentration in mol/L, as a bare number?

// pIC50 lookup, compound = CC(C)CCCC(C)[C@H]1CC[C@H]2[C@@H]3CC(=O)O[C@](C)(CC/C=C\C#N)[C@H]3CC[C@]12C (stereo partly specified) , result: 5.14

----------
- Experimental target: M-phase inducer phosphatase 1 (Homo sapiens)
- Sequence (P30304 whole entry): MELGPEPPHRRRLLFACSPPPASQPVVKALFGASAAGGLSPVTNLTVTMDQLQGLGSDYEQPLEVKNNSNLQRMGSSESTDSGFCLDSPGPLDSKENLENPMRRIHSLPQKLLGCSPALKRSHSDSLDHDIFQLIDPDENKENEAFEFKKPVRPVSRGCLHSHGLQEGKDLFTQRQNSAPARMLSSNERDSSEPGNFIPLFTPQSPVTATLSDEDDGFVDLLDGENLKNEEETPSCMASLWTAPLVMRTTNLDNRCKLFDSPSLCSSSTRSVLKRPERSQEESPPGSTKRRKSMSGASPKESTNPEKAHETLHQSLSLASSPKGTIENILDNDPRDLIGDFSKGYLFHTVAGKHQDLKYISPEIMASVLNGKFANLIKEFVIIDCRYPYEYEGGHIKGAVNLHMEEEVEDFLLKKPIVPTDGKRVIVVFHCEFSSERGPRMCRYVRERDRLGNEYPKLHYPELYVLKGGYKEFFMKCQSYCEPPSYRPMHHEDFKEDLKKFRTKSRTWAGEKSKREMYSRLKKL
- Test protocol: Inhibitory activity tested against cell division cycle 25A (assay using fluorescein diphosphate (FDP) as substrate)
Entries annotated with measured IC50
Please state the figure in µM; there is no need to write the unit.

Molecule: CC(C)CCCC(C)[C@H]1CC[C@H]2[C@H](CC(=O)O)[C@@H](C(C)CCCCC#N)CC[C@]12C (stereo in doubt; 22)
Experimental target: M-phase inducer phosphatase 1 (Homo sapiens)
IC50 [µM]: 1.9

# input for lookup
// IC50 lookup, molecule = CC(C)CCC[C@@H](C)[C@H]1CC[C@H]2[C@@H]3CC[C@H]4C[C@@H](O/C(S)=N\c5ccccc5)CC[C@]4(C)[C@H]3CC[C@]12C , result: 2.1

----------
- Test system: T47D
- Test protocol: Growth inhibitory activity was determined against T-47D cancer cell line of Breast cancer
- Type: functional, Homo sapiens
- Test conditions: Homo sapiens, T47D
Endpoint: GI50 (µM)
Please state the figure in µM; there is no need to write the unit.

Compound: C=C(CCCCC#N)[C@H]1CC[C@]2(C)[C@@H]([C@H](C)CCCC(C)C)CC[C@H]2[C@@H]1CC(=O)O
Endpoint: GI50
Unit name: µM
Measurement: 8.39

// GI50 lookup, compound = CC(C)CCC[C@@H](C)[C@H]1CC[C@H]2[C@@H]3CC(=O)O[C@](C)(CCCCC#N)[C@H]3CC[C@]12C , result: 4.92

// GI50 lookup, compound = CC(C)CCC[C@@H](C)[C@H]1CC[C@H]2[C@@H]3CC(=O)O[C@](C)(CCCCC(=O)O)[C@H]3CC[C@]12C , result: 7.3

----------
- Experimental target: M-phase inducer phosphatase 1 (Homo sapiens)
- Test protocol: Inhibitory activity tested against cell division cycle 25A (assay using fluorescein diphosphate (FDP) as substrate)
pIC50: −log10 of the molar value.
Mark 1 for reported pIC50 of 5 or greater; mark -1 for anything smaller.

Identify whether the reported pIC50 of the following compound is 5 or greater: CCOC(=O)C(C)SC(=S)O[C@H]1CC[C@@]2(C)[C@@H](CC[C@@H]3[C@@H]2CC[C@]2(C)[C@@H]([C@H](C)CCCC(C)C)CC[C@@H]32)C1 (stereo partly specified)
-1

Identify whether the reported pIC50 of the following compound is 5 or greater: CC(C)CCC[C@@H](C)[C@H]1CC[C@H]2[C@@H]3CC[C@H]4C[C@@H](OC(=S)SCC(=O)O)CC[C@]4(C)[C@H]3CC[C@]12C
1

----------
- Experimental target: M-phase inducer phosphatase 1 (Homo sapiens)
- Test protocol: Inhibitory activity tested against cell division cycle 25A (assay using p-nitro phenyl phosphate (pNPP) as substrate)
Entries annotated with measured IC50
Please state the figure in µM; there is no need to write the unit.

Smiles string: C/C(=C\CCCC#N)[C@H]1CC[C@]2(C)[C@@H]([C@H](C)CCCC(C)C)CC[C@H]2[C@@H]1CC(=O)O
Endpoint: IC50
Unit name: µM
Measurement: 9.3

# input for lookup
// IC50 lookup, compound = C=C(CCCCC#N)[C@H]1CC[C@]2(C)[C@@H]([C@H](C)CCCC(C)C)CC[C@H]2[C@@H]1CC(=O)O , result: 8.3

----------
- Experimental target: M-phase inducer phosphatase 1 (Homo sapiens, UniProt P30304)
- Test protocol: Inhibitory activity tested against cell division cycle 25A (assay using fluorescein diphosphate (FDP) as substrate)
pIC50: −log10 of the molar value.
Entries annotated with measured pIC50

// worked examples, pIC50 included
Smiles string: CC(C)CCC[C@@H](C)[C@H]1CC[C@H]2[C@@H]3CC(=O)O[C@@](C)(CC/C=C\C#N)[C@H]3CC[C@]12C
Experimental target: M-phase inducer phosphatase 1 (Homo sapiens, UniProt P30304)
pIC50: < 4.30
//
Smiles string: CCOC(=O)CC(=O)CSC(=S)O[C@H]1CC[C@@]2(C)[C@@H](CC[C@@H]3[C@@H]2CC[C@]2(C)[C@@H]([C@H](C)CCCC(C)C)CC[C@@H]32)C1
Experimental target: M-phase inducer phosphatase 1 (Homo sapiens, UniProt P30304)
pIC50: < 4.00

// pIC50 lookup, compound = CC(C)CCC[C@@H](C)[C@H]1CC[C@H]2[C@@H]3CC[C@H]4C[C@@H](OC(=S)SCC(=O)c5ccccc5)CC[C@]4(C)[C@H]3CC[C@]12C , result: < 4.00

----------
- Test system: NCI-H522
- Test protocol: Growth inhibitory activity was determined against NCI-H522 cancer cell line of non-small cell lung cancer
- Format: functional
- Test conditions: Homo sapiens
Endpoint: GI50

Compound: CC(C)CCCC(C)[C@H]1CC[C@H]2[C@H](CC(=O)O)[C@@H](C(C)CCCCC#N)CC[C@]12C (stereo in doubt; 21)
Endpoint: GI50
Measurement: > 25 µM
--
Compound: CC(C)CCCC(C)[C@H]1CC[C@H]2[C@@H]3CC(=O)O[C@](C)(CC/C=C\C#N)[C@H]3CC[C@]12C (stereo not given in full)
Endpoint: GI50
Measurement: 0.89 µM
--
Compound: CC(C)CCC[C@@H](C)[C@H]1CC[C@H]2[C@@H]3CC(=O)O[C@](C)(CCCCC#N)[C@H]3CC[C@]12C
Endpoint: GI50
Measurement: > 25 µM
--
Compound: CC(C)CCC[C@@H](C)[C@H]1CC[C@H]2[C@H](CC(=O)O)[C@@H]([C@@]3(C)CCCCC3=O)CC[C@]12C
Endpoint: GI50
Measurement: > 25 µM

# input for lookup
// GI50 lookup, compound = CC(C)CCC[C@@H](C)[C@H]1CC[C@H]2[C@@H]3CC(=O)O[C@](C)(CCCCC(=O)O)[C@H]3CC[C@]12C , result: > 25 µM

----------
- Test system: T47D
- Test protocol: Growth inhibitory activity was determined against T-47D cancer cell line of Breast cancer
- Assay type: functional, Homo sapiens
- Test conditions: Homo sapiens, T47D
Exam item: assign Yes to entries whose GI50 is below 8 µM and No to entries at or above 8 µM. Note that a value of exactly 8 µM receives No.

Answered cases to consult:
Compound: CC(C)CCC[C@@H](C)[C@H]1CC[C@H]2[C@@H]3CC(=O)N4C(=O)C=CCC[C@]4(C)[C@H]3CC[C@]12C
Label value: Yes

Compound: CC(C)CCCC(C)[C@H]1CC[C@H]2[C@H](CC(=O)O)[C@@H](C(C)CCCCC#N)CC[C@]12C (stereo in doubt; 21)
Label value: Yes

Compound: CC(C)CCCC(C)[C@H]1CC[C@H]2[C@H](CC(=O)O)[C@@H]([C@@]3(C)CC[C@@H](CC#N)O3)CC[C@]12C (stereo not given in full)
Label value: No

Compound: CC(C)CCCC(C)[C@H]1CC[C@H]2[C@@H]3CC(=O)O[C@](C)(CC/C=C\C#N)[C@H]3CC[C@]12C (stereo not given in full)
Label value: No

I'd appreciate it if you could check whether CC(C)CCC[C@@H](C)[C@H]1CC[C@H]2[C@H](CC(=O)O)[C@@H]([C@@]3(C)CCCCC3=O)CC[C@]12C has GI50 smaller than 8 µM.
No

----------
- Experimental target: M-phase inducer phosphatase 1 (Homo sapiens)
- Test protocol: Inhibitory activity tested against cell division cycle 25A (assay using fluorescein diphosphate (FDP) as substrate)
Endpoint: IC50 (µM)
Please state the figure in µM; there is no need to write the unit.

// worked examples, IC50 included
Compound: COC(CC#N)CC[C@@]1(C)OC(=O)C[C@H]2[C@@H]3CC[C@H]([C@H](C)CCCC(C)C)[C@@]3(C)CC[C@@H]21 (some centres undefined)
IC50 / µM: 10.5

Compound: CC(C)CCC[C@@H](C)[C@H]1CC[C@H]2[C@H](CC(=O)O)[C@@H]([C@@]3(C)CCCCC3=O)CC[C@]12C
IC50 / µM: 5.9

Compound: CC(C)CCC[C@@H](C)[C@H]1CC[C@H]2[C@@H]3CC[C@H]4C[C@@H](OCC(=O)O)CC[C@]4(C)[C@H]3CC[C@]12C
IC50 / µM: 0.7

# input for lookup
// IC50 lookup, compound = CC(C)CCCC(C)[C@H]1CC[C@H]2[C@@H]3CC(=O)O[C@](C)(CC/C=C\C#N)[C@H]3CC[C@]12C (some centres undefined) , result: 29
